// provenance: ChEMBL document CHEMBL1155746

species on record: Oryctolagus cuniculus; assay: Inhibition of rabbit skeletal muscle PP1 at 100 ug/mL by liquid scintillation counter
*1 amine or outer side, *2 acyl side, *3 side chain or, on linkers, in order; H or OH if unused. Where a SMILES comes first, the peptide text is derived from it. Bridges are numbered along the chain shown (N, C = ends). [ ]: non-standard residue; d: D form. hTyr = N[C@@H](CCc1ccc(O)cc1)C(=O)O; aIle = CC[C@@H](C)[C@H](N)C(=O)O; NMeA = CN[C@@H](C)C(=O)O; CO = O=C([*:1])[*:2]

COMPOUND: CC[C@@H](C)[C@@H]1NC(=O)[C@H](NC(=O)N[C@@H](Cc2ccc(O)cc2)C(=O)O)CCCCNC(=O)[C@H](Cc2ccccc2)NC(=O)[C@H](C)N(C)C(=O)[C@H](CCc2ccc(O)cc2)NC1=O ({Tyr-CO}-[dK][aIle][hTyr][NMeA]F; lactam 1-C)
UNITS SYMBOL: %
inhibition: 11.2
//
COMPOUND: CC[C@H](C)[C@@H]1NC(=O)[C@H](NC(=O)N[C@@H](CCCNC(=N)N)C(=O)O)CCCCNC(=O)[C@H](Cc2ccccc2)NC(=O)[C@H](C)N(C)C(=O)[C@H](CCc2ccc(O)cc2)NC1=O ({Arg-CO}-[dK]I[hTyr][NMeA]F; lactam 1-C)
UNITS SYMBOL: %
inhibition: 38.1
//
COMPOUND: CSCC[C@@H]1NC(=O)[C@H](NC(=O)N[C@@H](CCCNC(=N)N)C(=O)O)CCCCNC(=O)[C@H](Cc2ccccc2)NC(=O)[C@H](C)N(C)C(=O)[C@H](CCc2ccc(O)cc2)NC1=O ({Arg-CO}-[dK]M[hTyr][NMeA]F; lactam 1-C)
UNITS SYMBOL: %
inhibition: 43.3
//
COMPOUND: CC[C@H](C)[C@@H]1NC(=O)[C@H](NC(=O)N[C@@H](CCCNC(=N)N)C(=O)O)CCCCNC(=O)[C@H](Cc2ccccc2)NC(=O)[C@H](CCc2ccc(O)cc2)N(C)C(=O)[C@H](CCc2ccc(O)cc2)NC1=O [OSCILLAMIDE C]
UNITS SYMBOL: %
inhibition: 97.3

* * *

target: UniProtKB P51452; experiment: Inhibition of human dual specificity protein phosphatase VHR expressed in Escherichia coli JM109 at 100 ug/mL
Sequence (P51452 whole entry, looked up): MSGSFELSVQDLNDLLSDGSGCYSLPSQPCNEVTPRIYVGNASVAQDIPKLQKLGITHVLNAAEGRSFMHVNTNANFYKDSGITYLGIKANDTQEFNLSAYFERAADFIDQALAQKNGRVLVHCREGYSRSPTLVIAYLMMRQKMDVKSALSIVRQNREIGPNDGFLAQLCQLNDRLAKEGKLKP
The source made the active and inactive calls. No cut-off for these calls is given here. *1 amine or outer side, *2 acyl side, *3 side chain or, on linkers, in order; H or OH if unused. Where a SMILES comes first, the peptide text is derived from it. Bridges are numbered along the chain shown (N, C = ends). [ ]: non-standard residue; d: D form. hTyr = N[C@@H](CCc1ccc(O)cc1)C(=O)O; aIle = CC[C@@H](C)[C@H](N)C(=O)O; NMeA = CN[C@@H](C)C(=O)O; CO = O=C([*:1])[*:2]

MOLECULE: CSCC[C@@H]1NC(=O)[C@H](NC(=O)N[C@@H](CCCNC(=N)N)C(=O)O)CCCCNC(=O)[C@H](Cc2ccccc2)NC(=O)[C@H](C)N(C)C(=O)[C@H](CCc2ccc(O)cc2)NC1=O ({Arg-CO}-[dK]M[hTyr][NMeA]F; lactam 1-C)
Activity: inactive

MOLECULE: CC[C@H](C)[C@@H]1NC(=O)[C@H](NC(=O)N[C@@H](CCCNC(=N)N)C(=O)O)CCCCNC(=O)[C@H](Cc2ccccc2)NC(=O)[C@H](CCc2ccc(O)cc2)N(C)C(=O)[C@H](CCc2ccc(O)cc2)NC1=O [OSCILLAMIDE C]
Activity: inactive

MOLECULE: CC[C@H](C)[C@@H]1NC(=O)[C@H](NC(=O)N[C@@H](CCCNC(=N)N)C(=O)O)CCCCNC(=O)[C@H](Cc2ccccc2)NC(=O)[C@H](C)N(C)C(=O)[C@H](CCc2ccc(O)cc2)NC1=O ({Arg-CO}-[dK]I[hTyr][NMeA]F; lactam 1-C)
Activity: inactive

MOLECULE: CC[C@@H](C)[C@@H]1NC(=O)[C@H](NC(=O)N[C@@H](Cc2ccc(O)cc2)C(=O)O)CCCCNC(=O)[C@H](Cc2ccccc2)NC(=O)[C@H](C)N(C)C(=O)[C@H](CCc2ccc(O)cc2)NC1=O ({Tyr-CO}-[dK][aIle][hTyr][NMeA]F; lactam 1-C)
Activity: inactive

* * *

species: Homo sapiens; test: Inhibition of human red blood cells PP2A at 100 ug/mL by liquid scintillation counter
*1 amine or outer side, *2 acyl side, *3 side chain or, on linkers, in order; H or OH if unused. Where a SMILES comes first, the peptide text is derived from it. Bridges are numbered along the chain shown (N, C = ends). [ ]: non-standard residue; d: D form. hTyr = N[C@@H](CCc1ccc(O)cc1)C(=O)O; aIle = CC[C@@H](C)[C@H](N)C(=O)O; NMeA = CN[C@@H](C)C(=O)O; CO = O=C([*:1])[*:2]
Documented inhibition across a set of compounds

COMPOUND: CC[C@H](C)[C@@H]1NC(=O)[C@H](NC(=O)N[C@@H](CCCNC(=N)N)C(=O)O)CCCCNC(=O)[C@H](Cc2ccccc2)NC(=O)[C@H](CCc2ccc(O)cc2)N(C)C(=O)[C@H](CCc2ccc(O)cc2)NC1=O [OSCILLAMIDE C]
inhibition: 98.4%
--
COMPOUND: CSCC[C@@H]1NC(=O)[C@H](NC(=O)N[C@@H](CCCNC(=N)N)C(=O)O)CCCCNC(=O)[C@H](Cc2ccccc2)NC(=O)[C@H](C)N(C)C(=O)[C@H](CCc2ccc(O)cc2)NC1=O ({Arg-CO}-[dK]M[hTyr][NMeA]F; lactam 1-C)
inhibition: 62.8%
--
COMPOUND: CC[C@H](C)[C@@H]1NC(=O)[C@H](NC(=O)N[C@@H](CCCNC(=N)N)C(=O)O)CCCCNC(=O)[C@H](Cc2ccccc2)NC(=O)[C@H](C)N(C)C(=O)[C@H](CCc2ccc(O)cc2)NC1=O ({Arg-CO}-[dK]I[hTyr][NMeA]F; lactam 1-C)
inhibition: 41.5%
--
COMPOUND: CC[C@@H](C)[C@@H]1NC(=O)[C@H](NC(=O)N[C@@H](Cc2ccc(O)cc2)C(=O)O)CCCCNC(=O)[C@H](Cc2ccccc2)NC(=O)[C@H](C)N(C)C(=O)[C@H](CCc2ccc(O)cc2)NC1=O ({Tyr-CO}-[dK][aIle][hTyr][NMeA]F; lactam 1-C)
inhibition: 9.6%

* * *

assay: Inhibition of PTP-S2 expressed in Escherichia coli JM109 at 100 ug/mL
Activity calls are given as the source filed them. The rule behind the calls is not given here. *1 amine or outer side, *2 acyl side, *3 side chain or, on linkers, in order; H or OH if unused. Where a SMILES comes first, the peptide text is derived from it. Bridges are numbered along the chain shown (N, C = ends). [ ]: non-standard residue; d: D form. hTyr = N[C@@H](CCc1ccc(O)cc1)C(=O)O; aIle = CC[C@@H](C)[C@H](N)C(=O)O; NMeA = CN[C@@H](C)C(=O)O; CO = O=C([*:1])[*:2]
MEASURE NAME: Activity

COMPOUND: CC[C@H](C)[C@@H]1NC(=O)[C@H](NC(=O)N[C@@H](CCCNC(=N)N)C(=O)O)CCCCNC(=O)[C@H](Cc2ccccc2)NC(=O)[C@H](C)N(C)C(=O)[C@H](CCc2ccc(O)cc2)NC1=O ({Arg-CO}-[dK]I[hTyr][NMeA]F; lactam 1-C)
MEASURE NAME: Activity
RECORDED RESULT: inactive
//
COMPOUND: CSCC[C@@H]1NC(=O)[C@H](NC(=O)N[C@@H](CCCNC(=N)N)C(=O)O)CCCCNC(=O)[C@H](Cc2ccccc2)NC(=O)[C@H](C)N(C)C(=O)[C@H](CCc2ccc(O)cc2)NC1=O ({Arg-CO}-[dK]M[hTyr][NMeA]F; lactam 1-C)
MEASURE NAME: Activity
RECORDED RESULT: inactive
//
COMPOUND: CC[C@@H](C)[C@@H]1NC(=O)[C@H](NC(=O)N[C@@H](Cc2ccc(O)cc2)C(=O)O)CCCCNC(=O)[C@H](Cc2ccccc2)NC(=O)[C@H](C)N(C)C(=O)[C@H](CCc2ccc(O)cc2)NC1=O ({Tyr-CO}-[dK][aIle][hTyr][NMeA]F; lactam 1-C)
MEASURE NAME: Activity
RECORDED RESULT: inactive
//
COMPOUND: CC[C@H](C)[C@@H]1NC(=O)[C@H](NC(=O)N[C@@H](CCCNC(=N)N)C(=O)O)CCCCNC(=O)[C@H](Cc2ccccc2)NC(=O)[C@H](CCc2ccc(O)cc2)N(C)C(=O)[C@H](CCc2ccc(O)cc2)NC1=O [OSCILLAMIDE C]
MEASURE NAME: Activity
RECORDED RESULT: inactive
